compounds and their reported growth
Test system: RXF 393 renal
Assay: NCI-60 one-dose screen, 48 h (100 = growth as untreated, 0 = no growth, -100 = all killed)
Settings: 10 µM
Method: Cells are grown in 96 well plates and exposed to the test compound for 48 hours. Compounds are tested at a single concentration, which is 10^-5 M for most compounds. The reported endpoint is percent growth (GI% or GIPRCNT), where numbers from 0 - 100% represent growth inhibition, and numbers from -100% - 0 represent cell death. For example, a value of 40 represents 60% growth inhibition. A value of 0 means no net growth occurred over the course of the experiment. […]
This is part of a sample that, as a whole, favours compounds with a hit. Of some 83,000 tested, about 20% had one in any assay. Calls of active or inactive are those of the source. The calls were made as follows: active = growth percent below 10; inactive = the rest.
assay-endpoint: growth

# compound, reported-measurement
records = [
    ("O=C1/C(=C/c2ccc(O)cc2)Oc2ccc(Cl)cc21", "65.6% (inactive)"),
    ("Cc1ccccc1C1=N[C@@H](Cc2ccccc2)C(=O)c2c(nc3ccccn23)N1", "105% (inactive)"),
    ("COc1ccc(NC(=O)c2sc3nc4c(cc3c2N)C(O)CCC4)cc1 (stereo unspecified)", "102% (inactive)"),
    ("Cc1ccc([P+](Cc2ccccc2)(c2ccccc2)c2ccccc2)cc1", "45.7% (inactive)"),
    ("CCc1nn2c(-c3ccccc3)c(-c3cc(OC)c(OC)c(OC)c3)nc2s1", "88.9% (inactive)"),
    ("CCOC(=O)/C(C#N)=C(/C)C1CC1", "94.9% (inactive)"),
]

###

System: HCC-2998 colon
Assay: NCI-60 one-dose screen, 48 h (100 = growth as untreated, 0 = no growth, -100 = all killed)
Settings: 10 µM
Description: Growth inhibition of the HCC-2998 human tumor cell line is measured as a screen for anti-cancer activity. Cells are grown in 96 well plates and exposed to the test compound for 48 hours. Compounds are tested at a single concentration, which is 10^-5 M for most compounds. The reported endpoint is percent growth (GI% or GIPRCNT), where numbers from 0 - 100% represent growth inhibition, and numbers from -100% - 0 represent cell death. For example, a value of 40 represents 60% growth inhibition. […]
About 83,000 compounds went through this panel and 20% of them were active in at least one assay; those are over-represented in the sample as a whole.

# molecule, tested-on, growth / %
rows = [
    ("CCCN(CCC)CCCNC(=O)c1cc2c(-c3ccc(OC)c(OC)c3)nn(C)c2s1", "HCC-2998 colon", 67.2),
    ("COc1ccc(-c2cc(/C=C3\\C(=O)Nc4cc(Cl)ccc43)[nH]n2)cc1", "HCC-2998 colon", 56.7),
    ("C=CCOc1ccc2c(c1)CC=C1[C@@H]2CC[C@]2(C)C(=O)/C(=N/O)C[C@@H]12", "HCC-2998 colon", 74.8),
    ("O=[N+]([O-])c1cc2ncccc2c2ncccc12", "HCC-2998 colon", 108),
    ("CCN(CC)CC(O)Cc1ccc(OC)cc1 (stereo unspecified)", "HCC-2998 colon", 111),
    ("COc1ccc2nc(NC(=O)Nc3c(F)cccc3F)sc2c1", "HCC-2998 colon", 102),
]

###

test system: SF-539 CNS; experiment: NCI-60 one-dose screen, 48 h (100 = growth as untreated, 0 = no growth, -100 = all killed); conditions: 10 µM
Compounds without any hit were thinned out: in the full panel of roughly 83,000, 20% have a hit. Calls of active or inactive are those of the source. The calls were made as follows: active = growth percent below 10; inactive = the rest.

# compound, growth
data = [
    ("Cc1cc(C#Cc2ccccc2)ccc1-n1c(/C=C/c2cc(O)ccc2O)nc2ccccc2c1=O", "-20.9% (active)"),
    ("COc1ccc(N2CCN(c3nc(-c4ccccc4)c(C#N)c(=O)[nH]3)CC2)cc1", "99.6% (inactive)"),
    ("CNC(=S)Sc1ccc([N+](=O)[O-])cc1[N+](=O)[O-]", "25.9% (inactive)"),
    ("CCCCn1c(=O)[nH]c2c(c1=O)C(c1ccc(Cl)cc1)c1c([nH]c(=O)n(CCCC)c1=O)N2", "101% (inactive)"),
    ("NS(=O)(=O)c1ccc(N2N=C(c3ccc(-c4ccccc4)cc3)CC2c2ccc(Cl)cc2)cc1 (stereo unspecified)", "93.9% (inactive)"),
    ("O=[N+]([O-])C1CC2C=CC1C2 (stereo unspecified)", "102% (inactive)"),
    ("C(=C\\c1nc2ccccc2s1)/c1ccc(N2CCOCC2)s1", "81.1% (inactive)"),
    ("Nc1ccc(C2=CC(c3ccc(Cl)cc3)N3C=CSC3=N2)cc1 (stereo unspecified)", "-55.8% (active)"),
    ("NC(=O)c1ccc(Br)o1", "96.5% (inactive)"),
    ("CCOC(=O)c1sc(NC(=O)c2cc(OC)c(OC)c(OC)c2)nc1C", "103% (inactive)"),
    ("CC(CNC(Cc1ccccc1)c1ccccc1)NC(Cc1ccccc1)c1ccccc1 (stereo unspecified)", "52.7% (inactive)"),
]

###

molecules and their reported growth
tested on: SF-539 CNS; test: NCI-60 one-dose screen, 48 h (100 = growth as untreated, 0 = no growth, -100 = all killed); conditions: 10 µM
Compounds without any hit were thinned out: in the full panel of roughly 83,000, 20% have a hit.

# molecule, growth (%)
rows = [
    ("O=c1ccc2nc(-c3ccccc3)nn(-c3ccccc3)c-2c1", 105),
    ("Cc1ccc2nc3[nH]c(=O)[nH]c(=O)c3c(N)c2c1", 92.3),
    ("C#C[C@]1(O)CC[C@H]2[C@@H]3CC[C@H]4CC(F)(F)CC[C@]4(C)[C@H]3CC[C@@]21C", 54.6),
    ("O=C1CC[C@@H](C(=O)N[C@H]2CSSC[C@@H](C(=O)N/C=C/c3ccc(O)cc3)NC(=O)[C@H](Cc3ccccc3)NC(=O)[C@@H]3CCCN3C(=O)[C@@H]3CCCN3C2=O)N1", 96.6),
    ("CCOC(=O)c1c(O)c2cc(-c3ccccc3)nc(OCC)c2c(=O)n1C", 94.6),
    ("COc1ccc(-c2nnc(N3CCN(C(=O)CN4CCN(c5ccc(Cl)cc5)CC4)CC3)nc2-c2ccc(OC)cc2)cc1", 82.2),
    ("CC1(C)CNC(=O)N1", 98.9),
    ("CCN(Cc1ccccc1)C1CCN(Cc2cc(Br)ccc2O)CC1", 74.8),
    ("CCOC(=O)c1cc2c(n1Cc1ccccc1)-c1oncc1CC2", 90.5),
    ("CC(=O)Nc1nc(C)c(C(=O)N/N=C/c2cccn2C)s1", 103),
    ("CCc1c(C)[nH]c(=O)c(C(N)=O)c1C#N", 92.9),
    ("CCCc1c(CC)c(=N)c2ccccc2n1C", 68.1),
    ("Fc1ccc(Nc2ccnc(N3CCN(c4ccnc5cc(Cl)ccc45)CC3)n2)cc1", 51.4),
    ("O=S(=O)(NC1c2ccccc2Oc2ccccc21)c1cc(Cl)ccc1Cl", 98.2),
    ("COc1cc(-c2c(C#N)c(N)n3c(nc4ccccc43)c2C#N)cc(Br)c1OC", 41.2),
    ("NC1CCC(Nc2nc(NCc3ccc(-c4cccs4)nc3)c3ncn(C4CCCC4)c3n2)CC1 (stereo not drawn)", -56.7),
    ("O=c1oc2cc(OS(=O)(=O)C3CC3)ccc2c2c1CCCCCC2", 82.2),
    ("CCN(CC)CCOC(=O)c1ccc(N=Nc2ccc(O)c(OC)c2)cc1", 96.4),
    ("COc1cc(CSc2nc3ccc(Cl)cc3c(=O)n2-c2ccccc2)cc(OC)c1OC", 78.9),
    ("O=C(NCCCl)c1cc(Cl)cc(Cl)c1", 101),
    ("CS(=O)(=O)Nc1ccc(OCc2nnc(-c3ccc(Cl)cc3)o2)c(F)c1", 85.1),
    ("Cc1ccc2nc(-c3ccc(OCC(=O)N=Nc4c(O)[nH]c5ccccc45)cc3)[nH]c2c1", 100),
    ("Cc1cc(/C=C2\\SC(=Nc3ccccc3)N(C3CCCC3)C2=O)c(C)n1-c1ccc(Cl)cc1", -70.8),
    ("C=CCn1ccc(=O)nc1SC", 105),
    ("COCCOC(=O)NC(=O)Nc1ccc(C(=O)c2ccc(Cl)cc2)cc1", 15.4),
    ("CC(=O)OC1Oc2ccccc2-c2oc(=O)c(-c3ccc(F)cc3)cc21 (stereo not drawn)", 86.4),
    ("COc1cc(OC)cc(-c2ccc(-c3ccc(C(=N)N)cn3)o2)c1", -69.1),
    ("O=C(CCc1ccccc1)N1CCN(C(=O)CCc2ccccc2)CC1", 104),
    ("CN(C)c1ccc2cc(-c3cc4c(oc3=O)-c3ccccc3OC4O)c(=O)oc2c1 (stereo not drawn)", 19),
    ("C=CCNCCCN1C(=O)c2ccc3c4c(ccc(c24)C1=O)C(=O)N(CCCNCC=C)C3=O", -88.7),
    ("Nc1ccc2c(c1)Cc1cc(N)c(Cl)cc1-2", 95.9),
    ("COc1ccc(-c2ccccc2)cc1C(=O)c1ccc(-c2ccccc2)cc1", 88.4),
    ("CNC(=O)c1cc(Oc2ccc(NC(=O)Nc3ccc(Cl)c(C(C)(C)C)c3)c(F)c2)ccn1", 46.6),
    ("COc1ccc(-c2nc(NC(=O)CS(=O)(=O)c3ccc(F)cc3)sc2C)cc1", 73.6),
    ("CCn1nc(-c2ccccn2)c2cccnc2c1=S", 89.1),
    ("C[N+]1(CC2CO2)CCCCCC1 (stereo not drawn)", 95.8),
    ("O/N=C1\\CCC2CCCCC2C1 (stereo not drawn)", 88.8),
    ("CCOC(=O)c1ccc(NC(=O)Nc2nncs2)cc1", 14.6),
    ("Cc1nc(Nc2nc3ccccc3o2)nc(-c2cccc([N+](=O)[O-])c2)c1C(=O)Nc1ccc(F)c(Cl)c1", 25.7),
    ("COc1cc(-c2cc(-c3cc(OC)c(OC)c(OC)c3)nc3nc(N)[nH]c(=O)c23)ccc1Oc1ccnc2cc(Cl)ccc12", -59.7),
    ("C#Cc1ccc(-n2c(/C=C/c3cc(OC)c(OC)c(OC)c3)nc3ncccc3c2=O)cc1", 78.8),
    ("Cn1c([N+](=O)[O-])cnc1C=C1C(=O)c2ccccc2C1=O", 17.7),
    ("CCOc1nc(-c2ccccc2)cc2c(O)c(C(=O)NC(C)C)[nH]c(=O)c12", 99.3),
]
